- Experiment Description: Volume of distribution at steady state in Beagle dog at 3 mg/kg, iv measured upto 24 hrs by LC-MS/MS analysis
- Format: ADME, organism-based, Canis lupus familiaris
- Measurement Context: in vivo, read-out: Vdss
Endpoint Label: Vd (L/kg)
Just the number please, in L/kg, no unit attached.

Return Vd (reported value) for this molecule: C=CCn1c(=O)c2cnc(Nc3ccc(N4CCN(C)CC4)cc3)nc2n1-c1ccc2c(n1)C(O)(CC)CC2 (racemic)
4.4

###

Listing of entries alongside the reported Papp A→B.
- Experiment Description: Permeability of the compound across apical to basolateral side in human Caco-2 cells
- Format: ADME, cell-based
- Measurement Context: read-out: permeability
Just the number please, in ×10⁻⁶ cm/s, no unit attached.

Consider the following illustrative entries.
[
  {
    "Compound": "C=CCn1c(=O)c2cnc(Nc3ccc(N4CCN(C)CC4)cc3)nc2n1-c1cccc(C(C)(C)O)n1",
    "Units Symbol": "×10⁻⁶ cm/s",
    "Papp A→B": 3.4
  },
  {
    "Compound": "Cc1cn(-c2c(Cl)cccc2Cl)c(=O)c2cnc(Nc3ccc(N4CCN(C)CC4)cc3)nc12",
    "Units Symbol": "×10⁻⁶ cm/s",
    "Papp A→B": 1.5
  }
]

Next compound, please.
Return Papp A→B (reported value) for this compound: C=CCn1c(=O)c2cnc(Nc3ccc(N4CCN(C)CC4)cc3)nc2n1-c1ccc2c(n1)C(O)(CC)CC2 (racemic)
3.6
